All values here come from patent US11109593B2.

# System: broad leaf weeds (Lindernia pyxidaria and Monochoria vaginalis)
# Procedure text: Test Example 1: herbicidal effect test by treatment of rice paddy soil (immediately after seeding)
# Type: in vivo
# Conditions: Monochoria vaginalis, 120 g/10a active ingredient, dry weight vs untreated area, 14 days after treatment
Labelling field: enter fulfilled if recorded Herbicidal rate (%) Monochoria vaginalis is less than 90%. Enter not fulfilled if it equals or exceeds that cut-off.

Some solved entries appear below for comparison.
>  <Compound>
CCCC(C)n1oc(=O)c(Cc2ccccc2N(S(=O)(=O)C(F)(F)F)S(=O)(=O)C(F)(F)F)c1C (stereo not shown)

>  <Category>
not fulfilled

$$$$
>  <Compound>
Cc1c(Cc2c(Cl)cccc2NS(=O)(=O)C(F)(F)F)c(=O)on1C(C)C

>  <Category>
fulfilled

$$$$
>  <Compound>
CCN(c1ccccc1Cc1c(C)n(CC(C)C)oc1=O)S(=O)(=O)C(F)(F)F

>  <Category>
fulfilled

$$$$

As a next step, examine the compound that follows.
**Q:** Dear colleague, could you confirm whether Herbicidal rate (%) Monochoria vaginalis of Cc1c(Cc2ccccc2N(S(=O)(=O)C(F)(F)F)S(=O)(=O)C(F)(F)F)c(=O)on1Cc1ccc(Br)cc1 falls below 90%? Thanks.
**A:** fulfilled
